- SYSTEM: human TLR7 (Homo sapiens (Human))
- PROCEDURE_SUMMARY: TLR7 inhibition reporter assay (HEK-Blue cells, SEAP reporter, gardiquimod stimulation)
- Assay type: cell-based
- CONDITION_LABEL: HEK-Blue cells overexpressing human TLR7, gardiquimod 7.5 μM
MEASURED_METRIC: IC50 (nM)

Worked cases, IC50 given:
- MOLECULE: "COc1cc(OC)nc(CN2CCC(c3ccc4[nH]c(-c5cc(C)nc(C)c5)c(C(C)C)c4c3)CC2)n1 [Example 447]"
  IC50, nM: 5.4
- MOLECULE: "CCCCN(CCO)C(=O)CN1CCC(c2ccc3[nH]c(-c4cc(C)nc(C)c4)c(C(C)C)c3c2)CC1 [Example 298]"
  IC50, nM: 25.6

A. COC(C)CN1CCC(c2ccc3[nH]c(-c4cc(C)nc(C)c4)c(C(C)C)c3c2)CC1 (stereo not drawn) [Example 332]
B. Cc1cc(-c2[nH]c3ccc(C4CCN(CC(F)F)CC4)cc3c2C(C)C)ccn1 [Example 660]
C. Cc1cc(-c2[nH]c3ccc(C4CCN(C5CCOC5)CC4)cc3c2C(C)C)ccn1 (stereo not drawn) [Example 717]
D. Cc1cc(-c2[nH]c3ccc(C4CCN(Cc5ccn(C)n5)CC4)cc3c2C(C)C)c(C)cn1 [Example 689]
// query Number of molecules to sort: 4. Sort criterion: IC50, ascending. Order the labels as requested and give them as your answer.
// result A, C, D, B

I. Cc1cc(-c2[nH]c3ccc(C4CCN(C(=O)CN5CCOC5=O)CC4)cc3c2C(C)C)cc(C)n1 [Example 164]
II. Cc1cc(-c2[nH]c3ccc(C4CCN(Cc5cncs5)CC4)cc3c2C(C)C)c(F)cn1 [Example 688]
III. Cc1cc(-c2[nH]c3ccc(C4CCN(C(=O)C5CCN(Cc6ccccc6)CC5)CC4)cc3c2C(C)C)ccn1 [Example 567]
// query Arrange these 3 molecules in increasing order of IC50. Returns: the labels listed in the requested order.
// result I, II, III

I. Cc1cc(-c2[nH]c3ccc(C4CCN(Cc5ccon5)CC4)cc3c2C(C)C)cc(C)n1 [Example 432]
II. Cc1cc(-c2[nH]c3ccc(C4CCN(C(=O)[C@@H]5CCC[C@H](N)C5)CC4)cc3c2C(C)C)ccn1 [Example 576]
// query I'm curious, which of these has a smaller IC50 number: I or II ? // caller expects the label of the chosen entry
// result I

###

- SYSTEM: human TLR7 (Homo sapiens (Human))
- PROCEDURE_SUMMARY: TLR7 inhibition reporter assay (HEK-Blue cells, SEAP reporter, gardiquimod stimulation)
- Type: cell-based
- CONDITION_LABEL: HEK-Blue cells overexpressing human TLR7, gardiquimod 7.5 μM
MEASURED_METRIC: IC50 (nM)

The following compounds have reported results that may help.
- COMPOUND: "CCOCCNCC(=O)N1CCC(c2ccc3[nH]c(-c4cc(C)nc(C)c4)c(C(C)C)c3c2)CC1"
  NUMERIC_VALUE: 5.2
- COMPOUND: "COCCN1CCC(c2ccc3[nH]c(-c4cc(C)nc(C)c4)c(C(C)C)c3c2)CC1"
  NUMERIC_VALUE: 3.1

P. Cc1cc(-c2[nH]c3ccc(C4CCN(CC(C)C)CC4)cc3c2C(C)C)cc(C)n1
Q. Cc1cc(-c2[nH]c3ccc(C4CCN(C5CCNCC5C)CC4)cc3c2C(C)C)ccn1 (stereo not shown)
// query Please indicate which item has the smaller measured IC50: P versus Q Give the label under which the chosen entry appears.
// result P
(P: 2.4 nM, Q: 32.4 nM)

###

- SYSTEM: human TLR8 (Homo sapiens (Human))
- Sequence (Q9NR97 27-1041): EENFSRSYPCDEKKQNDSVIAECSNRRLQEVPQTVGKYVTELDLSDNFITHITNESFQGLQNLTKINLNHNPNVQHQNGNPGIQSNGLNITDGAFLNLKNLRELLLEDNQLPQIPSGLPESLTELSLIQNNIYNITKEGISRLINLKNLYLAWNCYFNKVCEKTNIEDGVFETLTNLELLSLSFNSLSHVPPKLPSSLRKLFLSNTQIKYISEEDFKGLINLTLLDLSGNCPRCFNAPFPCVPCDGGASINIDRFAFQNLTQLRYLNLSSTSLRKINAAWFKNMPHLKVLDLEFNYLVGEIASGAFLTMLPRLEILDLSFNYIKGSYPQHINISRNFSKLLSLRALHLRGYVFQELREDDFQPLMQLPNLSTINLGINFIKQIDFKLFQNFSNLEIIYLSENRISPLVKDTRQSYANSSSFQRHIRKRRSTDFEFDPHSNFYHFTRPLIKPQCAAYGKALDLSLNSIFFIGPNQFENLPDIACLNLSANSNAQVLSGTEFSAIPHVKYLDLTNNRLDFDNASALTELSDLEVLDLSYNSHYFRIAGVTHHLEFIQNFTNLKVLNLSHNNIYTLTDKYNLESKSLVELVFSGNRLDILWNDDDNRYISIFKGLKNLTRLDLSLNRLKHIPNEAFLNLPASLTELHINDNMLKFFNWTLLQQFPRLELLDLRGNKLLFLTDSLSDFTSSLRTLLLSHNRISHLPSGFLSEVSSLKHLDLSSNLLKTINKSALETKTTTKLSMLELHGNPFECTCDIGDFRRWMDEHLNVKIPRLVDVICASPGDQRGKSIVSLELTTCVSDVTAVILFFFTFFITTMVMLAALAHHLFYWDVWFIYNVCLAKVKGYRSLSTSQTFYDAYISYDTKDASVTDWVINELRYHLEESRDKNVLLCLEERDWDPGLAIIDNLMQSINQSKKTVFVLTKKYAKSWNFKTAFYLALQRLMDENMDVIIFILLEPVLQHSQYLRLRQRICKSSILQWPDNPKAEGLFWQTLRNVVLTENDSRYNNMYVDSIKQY
- PROCEDURE_SUMMARY: TLR8 inhibition reporter assay (HEK-Blue cells, SEAP reporter, R848 stimulation);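 note: compounds tested from 0.05 nM to 50 µM, 22 h at 37 °C, SEAP measured with HEK-Blue Detection, inhibition relative to agonist plus DMSO versus a known inhibitor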
- CONDITION_LABEL: read-out: TLR8 IC50, HEK-Blue cells, R848 15.9 μM
MEASURED_METRIC: IC50 (nM)

- MOL_SMILES: "Cc1cc(-c2[nH]c3cc(F)c(C4CCN(C)CC4)cc3c2C(C)C)cc(C)n1"
  UNIT_OF_MEASURE: "nM"
  IC50: 4.8

A. Cc1cc(-c2[nH]c3ccc(C4CCN(Cc5cnc[nH]5)CC4)cc3c2C(C)C)ccn1
B. Cc1cc(-c2[nH]c3ccc(C4CCN(C(C)C)CC4)cc3c2C(C)C)ccn1
// query Of A and B , which shows the smaller IC50 value? Give the label of your selection.
// result A

###

- SYSTEM: human TLR9 (Homo sapiens (Human), UniProt Q9NR96)
- Sequence (Q9NR96 26-1032): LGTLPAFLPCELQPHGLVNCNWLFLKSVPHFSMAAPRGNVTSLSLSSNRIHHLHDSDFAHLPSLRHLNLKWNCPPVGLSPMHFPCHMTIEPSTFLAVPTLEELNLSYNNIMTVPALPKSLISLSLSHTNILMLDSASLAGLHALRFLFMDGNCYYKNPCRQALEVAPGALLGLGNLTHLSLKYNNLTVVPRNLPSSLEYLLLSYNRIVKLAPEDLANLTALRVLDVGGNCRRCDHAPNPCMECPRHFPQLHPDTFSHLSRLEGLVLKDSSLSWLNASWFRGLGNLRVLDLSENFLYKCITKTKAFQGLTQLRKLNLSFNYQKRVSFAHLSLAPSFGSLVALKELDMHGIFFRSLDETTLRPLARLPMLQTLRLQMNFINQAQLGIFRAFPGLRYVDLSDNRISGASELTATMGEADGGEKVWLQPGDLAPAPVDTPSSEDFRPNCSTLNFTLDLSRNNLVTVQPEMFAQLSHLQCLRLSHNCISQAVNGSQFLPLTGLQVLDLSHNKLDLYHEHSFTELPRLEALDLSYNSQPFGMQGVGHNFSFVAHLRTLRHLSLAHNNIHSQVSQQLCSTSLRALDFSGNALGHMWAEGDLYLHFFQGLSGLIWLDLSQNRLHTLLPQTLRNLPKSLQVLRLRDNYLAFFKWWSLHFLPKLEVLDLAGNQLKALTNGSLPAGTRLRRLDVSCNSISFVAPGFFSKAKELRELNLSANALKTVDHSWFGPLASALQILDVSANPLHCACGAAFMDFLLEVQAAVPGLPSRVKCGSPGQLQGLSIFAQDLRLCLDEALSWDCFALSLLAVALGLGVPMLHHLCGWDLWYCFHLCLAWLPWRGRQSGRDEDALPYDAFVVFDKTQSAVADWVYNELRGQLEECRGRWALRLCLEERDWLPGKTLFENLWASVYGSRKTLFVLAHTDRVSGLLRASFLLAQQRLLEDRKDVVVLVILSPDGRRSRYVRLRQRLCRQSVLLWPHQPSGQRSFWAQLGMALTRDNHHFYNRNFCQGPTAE
- PROCEDURE_SUMMARY: TLR9 inhibition reporter assay (HEK-Blue cells, SEAP reporter, ODN2006 stimulation);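 note: compounds tested over 0.05 nM to 50 µM, 22 h incubation, inhibition taken as SEAP signal drop from agonist plus DMSO wells toward a known inhibitor control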
- CONDITION_LABEL: read-out: TLR9 IC50, HEK-Blue cells overexpressing human TLR9, ODN2006 5 nM
MEASURED_METRIC: IC50 (nM)

- MOLECULE: "CCc1c(-c2ccnc(C)c2)[nH]c2ccc(C3CCN(CC4CCN(C(C)C)CC4)CC3)cc12 [Example 675]"
  MEASURED_METRIC: "IC50"
  NUMERIC_VALUE: 42
- MOLECULE: "Cc1cc(-c2[nH]c3ccc(C4CCN(CC(=O)N(C)C(C)(C)C)CC4)cc3c2C(C)C)cc(C)n1 [Example 250]"
  MEASURED_METRIC: "IC50"
  NUMERIC_VALUE: 1200
- MOLECULE: "Cc1cc(-c2[nH]c3ccc(C4CCN(CC(=O)N5CC(F)(F)C5)CC4)cc3c2C(C)C)cc(C)n1 [Example 215]"
  MEASURED_METRIC: "IC50"
  NUMERIC_VALUE: 680
- MOLECULE: "CCc1c(-c2ccnc(OC)c2)[nH]c2ccc(C3CCN(C4CCN(C(C)C)CC4)CC3)cc12 [Example 786]"
  MEASURED_METRIC: "IC50"
  NUMERIC_VALUE: 206
- MOLECULE: "COc1cc(-c2[nH]c3ccc(C4CCN(C5CCNCC5)CC4)cc3c2C(C)C)ccn1 [Example 800]"
  MEASURED_METRIC: "IC50"
  NUMERIC_VALUE: 729
- MOLECULE: "Cc1cc(-c2[nH]c3ccc(C4CCN(C(=O)[C@@H](N)CCCCN)CC4)cc3c2C(C)C)ccn1 [Example 579]"
  MEASURED_METRIC: "IC50"
  NUMERIC_VALUE: 4360

a. Cc1cc(-c2[nH]c3ccc(C4CCN(CC(=O)N5CCC[C@H]5CO)CC4)cc3c2C(C)C)cc(C)n1 [Example 274]
b. Cc1nccc(-c2[nH]c3ccc(C4CCNCC4)cc3c2C(C)C)c1F [Example 53]
// query Two entries are listed, a and b . Which one carries the higher IC50? Identify your selection by its label.
// result b

###

- SYSTEM: human TLR7 (Homo sapiens (Human), UniProt Q9NYK1)
- Sequence (Q9NYK1 27-1049): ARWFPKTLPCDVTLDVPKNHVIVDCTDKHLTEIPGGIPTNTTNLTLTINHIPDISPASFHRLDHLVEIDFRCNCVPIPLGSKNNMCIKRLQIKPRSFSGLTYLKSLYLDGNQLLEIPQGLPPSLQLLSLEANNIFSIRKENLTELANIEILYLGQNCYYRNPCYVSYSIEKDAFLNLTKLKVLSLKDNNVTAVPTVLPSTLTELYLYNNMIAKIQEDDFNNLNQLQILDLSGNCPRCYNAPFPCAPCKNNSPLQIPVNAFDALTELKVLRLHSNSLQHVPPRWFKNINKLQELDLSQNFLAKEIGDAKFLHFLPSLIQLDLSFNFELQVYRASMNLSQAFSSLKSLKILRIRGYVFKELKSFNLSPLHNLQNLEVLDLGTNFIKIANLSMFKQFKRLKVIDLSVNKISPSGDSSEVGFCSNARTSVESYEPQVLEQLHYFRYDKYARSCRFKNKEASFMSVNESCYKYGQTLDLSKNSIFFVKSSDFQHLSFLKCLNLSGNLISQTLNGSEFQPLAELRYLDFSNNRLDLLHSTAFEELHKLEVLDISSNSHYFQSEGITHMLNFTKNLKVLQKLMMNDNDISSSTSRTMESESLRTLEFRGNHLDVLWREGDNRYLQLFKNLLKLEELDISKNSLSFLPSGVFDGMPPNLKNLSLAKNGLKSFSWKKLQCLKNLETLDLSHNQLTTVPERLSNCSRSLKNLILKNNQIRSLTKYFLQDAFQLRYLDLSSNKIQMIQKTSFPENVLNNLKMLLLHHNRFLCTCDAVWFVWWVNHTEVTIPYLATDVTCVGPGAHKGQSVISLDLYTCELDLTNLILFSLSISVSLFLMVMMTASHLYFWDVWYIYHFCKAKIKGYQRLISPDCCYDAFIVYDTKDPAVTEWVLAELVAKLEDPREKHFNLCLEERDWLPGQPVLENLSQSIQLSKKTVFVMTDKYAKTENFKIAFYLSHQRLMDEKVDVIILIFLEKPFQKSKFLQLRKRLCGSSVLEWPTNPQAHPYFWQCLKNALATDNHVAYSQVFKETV
- PROCEDURE_SUMMARY: TLR7 inhibition reporter assay (HEK-Blue cells, SEAP reporter, gardiquimod stimulation)
- Assay type: cell-based
- CONDITION_LABEL: HEK-Blue cells overexpressing human TLR7, gardiquimod 7.5 μM
MEASURED_METRIC: IC50 (nM)

- COMPOUND: "Cc1cc(-c2[nH]c3ccc(C4CCN(C5CCCN(C(C)C)C5)CC4)cc3c2C(C)C)ccn1 (stereo not drawn) [Example 707]"
  IC50 (nM): 7.6
- COMPOUND: "Cc1cc(-c2[nH]c3ccc(C4CCN(CC(=O)N5CCOC[C@H]5CO)CC4)cc3c2C(C)C)cc(C)n1 [Example 304]"
  IC50 (nM): 10.3
- COMPOUND: "CNC(=O)CN1CCC(c2ccc3[nH]c(-c4ccnc(C)c4)c(C(C)C)c3c2)CC1 [Example 513]"
  IC50 (nM): 13.5

###

- SYSTEM: human TLR7 (Homo sapiens (Human), UniProt Q9NYK1)
- PROCEDURE_SUMMARY: TLR7 inhibition reporter assay (HEK-Blue cells, SEAP reporter, gardiquimod stimulation)
- Assay type: cell-based
- CONDITION_LABEL: HEK-Blue cells overexpressing human TLR7, gardiquimod 7.5 μM
MEASURED_METRIC: IC50 (nM)

Consider the following illustrative entries.
- MOLECULE: "Cc1cc(-c2[nH]c3ccc(C4CCN(CC(=O)NCCC(C)O)CC4)cc3c2C(C)C)cc(C)n1 (centres unmarked)"
  SYSTEM: "human TLR7 (Homo sapiens (Human), UniProt Q9NYK1)"
  UNIT_OF_MEASURE: "nM"
  IC50: 2
- MOLECULE: "Cc1cc(-c2[nH]c3ccc(C4CCN(C5CCCOC5)CC4)cc3c2C(C)C)ccn1 (centres unmarked)"
  SYSTEM: "human TLR7 (Homo sapiens (Human), UniProt Q9NYK1)"
  UNIT_OF_MEASURE: "nM"
  IC50: 22.8
- MOLECULE: "Cc1cc(-c2[nH]c3ccc(C4CCN(C(=O)CCN(C)C)CC4)cc3c2C(C)C)ccn1"
  SYSTEM: "human TLR7 (Homo sapiens (Human), UniProt Q9NYK1)"
  UNIT_OF_MEASURE: "nM"
  IC50: 7.1

A. Cc1cc(-c2[nH]c3ccc(C4CCNCC4)cc3c2C(C)C)c(CO)cn1
B. Cc1cc(-c2[nH]c3ccc(C4CCN(CC(=O)N5CCC[C@@H]5CO)CC4)cc3c2C(C)C)cc(C)n1
C. CCC(CC)NC(=O)CN1CCC(c2ccc3[nH]c(-c4cc(C)nc(C)c4)c(C(C)C)c3c2)CC1
// query // sort entries: IC50, high to low # format: label list in the order the request specifies
// result A, C, B

a. Cc1cc(-c2[nH]c3ccc(C4CCN(Cc5c[nH]c(C)n5)CC4)cc3c2CC(F)F)cc(C)n1
b. CCc1c(-c2ccnc(O)c2)[nH]c2ccc(C3CCN(C4CCN(CC(C)C)CC4)CC3)cc12
c. Cc1cc(-c2[nH]c3ccc(C4CCN(C(=O)CN5CCCC(F)C5)CC4)cc3c2C(C)C)cc(C)n1 (centres unmarked)
d. Cc1cc(-c2[nH]c3ccc(C4CCN(C(=O)CN5CC[C@H](O)C5)CC4)cc3c2C(C)C)cc(C)n1
// query Place the items in sequence of falling IC50. Please express your ranking as an ordered list of the labels.
// result b, a, c, d

1. Cc1cc(-c2[nH]c3ccc(C4CCN(CC(=O)N(C)C(C)C)CC4)cc3c2C(C)C)cc(C)n1
2. Cc1cc(-c2[nH]c3ccc(C4CCN(C(=O)c5cccn(C6CC6)c5=O)CC4)cc3c2C(C)C)cc(C)n1
3. CC(C)c1c(-c2ccnc(N(C)C)c2)[nH]c2ccc(C3CCNCC3)cc12
// query Ascending by IC50, please. Return value: ordered labels per request.
// result 1, 2, 3
(1: 8.2 nM, 2: 20.5 nM, 3: 1480 nM)

I. Cc1cc(-c2[nH]c3ccc(C4CCN(C(=O)CNC56CC7CC(CC(C7)C5)C6)CC4)cc3c2C(C)C)cc(C)n1
II. Cc1cc(-c2[nH]c3cc(F)c(C4CCNCC4)cc3c2C(C)C)c(F)cn1
// query Between the two listed entries I and II , which has its IC50 at the higher number? Answer = label.
// result I
